PROPERTY: melting point (°C)

* O=CC=O [glyoxal] | 15
* OC[C@H]1O[C@@H](Oc2ccc(O)cc2)[C@H](O)[C@@H](O)[C@@H]1O [arbutin] | 198
* CC(Br)C(C)(C)Br (stereo unspecified) [2,3-dibromo-2-methylbutane] | 15
* O=Cc1ccc(O)cc1 [4-hydroxybenzaldehyde] | 118
* Oc1ccccc1F [2-fluorophenol] | 15
* COC(=O)N/C=C/c1ccccc1[N+](=O)[O-] [methyl [(E)-2-(2-nitrophenyl)ethenyl]carbamate] | 147

----------
Recorded melting point, one value per entry.
PROPERTY: melting point

* C/C(=C/C(=O)O)C(F)(F)F [3-(trifluoromethyl)crotonic acid] | 29 °C
* O=C(NNc1ccccc1)NNc1ccccc1 [N'',N'''-Diphenylcarbonohydrazide] | 173 °C
* CC(CCC(=O)O)(c1ccc(O)cc1)c1ccc(O)cc1 [4,4-bis(4-hydroxyphenyl)valeric acid] | 173 °C
* CCOC(=O)C1=CN=NC1C (stereo not given) [ethyl 3-methyl-1H-pyrazole-4-carboxylate] | 137 °C
* N#Cc1ccncc1Cl [3-chloro-4-cyanopyridine] | 73 °C
* CCC(O)C(C)(C)C (stereo not given) [2,2-dimethyl-3-pentanol] | -5 °C
* c1ccc2c(c1)OCCOCCOCCOCCOCCO2 [benzo-18-crown-6] | 44 °C
* Ic1ccc(I)cc1 [1,4-diiodobenzene] | 131 °C
* O=C(c1ccccc1)c1ccc(-c2ccccc2)cc1 [4-benzoylbiphenyl] | 101 °C
* Oc1ccc(F)cc1 [4-fluorophenol] | 46 °C

----------
Recorded melting point, one value per entry.
PROPERTY: melting point (°C)

• CC(C)(C)c1ccc(N)cc1 = 16
• NC(=O)c1ccccc1O [Salicylamide] = 140
• CC(CCc1oc2ccc(C)cc2c1-c1ccc(C)o1)=NO = 104
• O=C1Nc2ccc(Cl)cc2C(c2ccccc2Cl)=NC1O (stereo unspecified) = 166
• Oc1cccc2ccccc12 = 96
• CCOC(=O)c1cccc(C(=O)O)c1 = 109

----------
PROPERTY: melting point (°C)

* O=C(O)/C(=C/c1cccc([N+](=O)[O-])c1)c1ccccc1 [(E)-2-phenyl-3-(3-nitrophenyl)propenoic acid] | 185
* Cn1c(/C(C#N)=C/c2ccc(F)cc2)nc2ccccc21 | 134
* Cc1ccccc1-c1ccccc1 | 0
* CCOC(=O)CCC(C)C1CCC2C3C=CC4CC(OC(C)=O)CCC4(C)C3CC(OC(C)=O)C12C (centres undefined) [ethyl 3,12-bis(acetyloxy)chol-6-en-24-oate] | 84
* CC=C(C)CC [3-methyl-cis-2-pentene] | -135
* Cc1ccc(S(=O)(=O)NC(=O)NN2CCCCCC2)cc1 [Tolazamide] | 172
* OB(O)c1cccc(Br)c1 | 166
* c1csc(P(c2cccs2)c2cccs2)c1 | 29
* COC(=O)c1cc(Br)ccc1NC(C)=O [methyl 2-acetamido-5-bromobenzoate] | 134

----------
# binning rule on melting point: class 1: < 7 °C; class 2: ≥ 7 °C and < 70 °C; class 3: ≥ 70 °C

- CCCCCCCCCCCCCCCCCCCCCCCCCC: class 2
- O=S(=O)(O)c1ccccc1: class 2
- COc1ccc(/C=C2\N=C(c3ccccc3)OC2=O)cc1OC: class 3
- CN(N)c1ccc(C(F)(F)F)cc1[N+](=O)[O-] [N-methyl-N-[2-nitro-4-(trifluoromethyl)phenyl]hydrazine]: class 2
- CC(=O)OC1C(C)OC(OCc2ccccc2)C(OC(C)=O)C1OC(C)=O (configuration not stated) [benzyl 2,3,4-tri-O-acetyl-6-deoxyhexopyranoside]: class 3
- CCCCCCOCCO: class 1
- COC: class 1
- COc1ccc(OCC(=O)O)cc1: class 3
- ClC(Cl)c1ccccc1 [benzal chloride]: class 1
- C=CCC1(C2C=CCCC2)C(=O)NC(=S)NC1=O (configuration not stated): class 3
- Cc1cccc(C(=O)NCC(=O)O)c1: class 3
- ClC(Cl)(Cl)Cl [Tetrachloromethane]: class 1
- C1CCC(NC2CCCCC2)CC1 [dicyclohexylamine]: class 1
- CCS(=O)(=O)CCO [2-(ethylsulfonyl)ethanol]: class 2
- Brc1ccc(Br)cc1: class 3
- COC(=O)c1ccccc1 [Methyl benzoate]: class 1
- Cc1ccc(N=C=O)cc1N=C=O [toluene-2,4-diisocyanate]: class 2
- CCOCCOCCOCC [diethylene glycol diethyl ether]: class 1
- CCCCCCCCCCCCCCCCCCO: class 2
- CC(=O)Nc1ccc(/N=N/c2ccc(/N=N/c3ccc(/N=N/c4ccc(NC(C)=O)cc4)cc3)cc2)cc1: class 3
